assay: SPR equilibrium binding of his-tagged PDZ domains to PtdIns(4,5)P2 liposomes; details: SPR equilibrium analysis, 5% PtdIns(4,5)P2 in DOPC liposomes, 25°C, pH 7.2; read-out: KD app PtdIns(4,5)P2
Below is a list of entries, each paired with its recorded Kd value.
Answer in µM, number only, no unit symbol.

[
  {
    "molecule": "DFNB31_1/R145E: DFNB31_1 PDZ domain mutant R145E (protein, left off: His6, N-terminal, state not stated) GEVRLVSLREAKAHEGLGFSIRGGSEHGVGIWVSLVEPGSLAEKEGLRVGDQILRVNDKSLARVTHAEAVKALKGSKKLVLSVYSAGRI",
    "Kd (µM)": 15
  }
]

In the following, a different molecule is considered.
Query: Dear colleague, please send me the reported Kd for DFNB31_1: recombinant his-tagged first PDZ domain of human DFNB31 (protein, left off: His6, N-terminal, state not stated, recombinant his-tagged first PDZ domain of human DFNB31) GEVRLVSLRRAKAHEGLGFSIRGGSEHGVGIYVSLVEPGSLAEKEGLRVGDQILRVNDKSLARVTHAEAVKALKGSKKLVLSVYSAGRI when you can.
Response: 7.8
